B1: peptide HD2 (from tick evasin EVA4) / CCL4 (biotinylated, synthetic) (parent)
chain 1: EEDDYTAYAPLTCYFT
chain 2: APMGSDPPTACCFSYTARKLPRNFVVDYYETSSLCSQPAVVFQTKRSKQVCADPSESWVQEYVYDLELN

# Variants of: B1
# CONDITIONS USED: with CCL4 (biotinylated, synthetic); scale: log2

- RESIDUE CHANGE: "chain 1 Y8C"
  enrichment: -9.25
- RESIDUE CHANGE: "chain 1 P10H"
  enrichment: -7.52
- RESIDUE CHANGE: "chain 1 Y5A"
  enrichment: -6.64
- RESIDUE CHANGE: "chain 1 C13R"
  enrichment: -10.1
- RESIDUE CHANGE: "chain 1 Y8M"
  enrichment: -8.06
- RESIDUE CHANGE: "chain 1 A9C"
  enrichment: -9.66
- RESIDUE CHANGE: "chain 1 D4C"
  enrichment: -8.81
- RESIDUE CHANGE: "chain 1 C13H"
  enrichment: -8.22
- RESIDUE CHANGE: "chain 1 Y5K"
  enrichment: -5.17
- RESIDUE CHANGE: "chain 1 Y8K"
  enrichment: -5.64
- RESIDUE CHANGE: "chain 1 Y5G"
  enrichment: -6.68
